These data points were gathered from the supplement of paper PMC10127200.

test system: DU145; test: Euclidean distance of Cell Painting phenotypic profile (signed KS, 77 features) to DMSO centroid (dimensionless distance); 5 or 10 uM (library dependent); higher = stronger phenotypic change vs DMSO (phenoactivity); conditions: 48 h
Where a name gives a salt, the structure may show the parent alone.
RESULT TYPE: Euclidean distance
Give the figure by itself; no unit, no explanation.

Example entries and their recorded answers appear below.
CC[C@@H](C)Nc1cc(C(=O)N[C@H]2C[C@H]3CC[C@@H](C2)N3c2ccc(C(=O)C3CC3)cn2)c(C)cc1C(N)=O	3.17
CCCCOc1ccc(C(=O)Nc2ccc(F)cc2F)cc1	1.14
CN1[C@@H]2CC[C@H]1C[C@@H](OC(=O)c1c[nH]c3ccccc13)C2	1.05
Cc1cc(CN2CCN(c3c(Br)cnc4nc(-c5ccc(N6CCN(C)CC6)cc5)[nH]c34)CC2)no1	1.12
CO[C@@H](C(=O)N1Cc2[nH]nc(NC(=O)c3ccc(N4CCN(C)CC4)cc3)c2C1)c1ccccc1	1.66

Give Euclidean distance for the following molecule: O=c1[nH]cc(F)c(=O)[nH]1
1.12

Retrieve Euclidean distance measured for CCCCNC(=O)NS(=O)(=O)c1ccc(C)cc1 [Tolbutamide] and print it.
0.836

Return Euclidean distance (reported value) for this molecule: CCN(CC)C(=O)/C(C#N)=C/c1cc(O)c(O)c([N+](=O)[O-])c1
0.513

Please report the measured Euclidean distance for CCn1cc(C(=O)O)c(=O)c2cc(F)c(N3CCN(C)CC3)cc21 [Pefloxacin Mesylate]
0.983

Please report Euclidean distance for the following molecule: CC(C)(C)NC(=O)[C@H]1CC[C@H]2[C@@H]3CC[C@H]4NC(=O)C=C[C@]4(C)[C@H]3CC[C@]12C [Finasteride]
0.682

// fetch Euclidean distance given entry CNC1CCCN(c2c(F)cc3c(=O)c(C(=O)O)cn(C4CC4)c3c2OC)C1 (stereo not given) [Balofloxacin Dihydrate]
0.831

Please look at this molecule and report its Euclidean distance: Nc1nnc(-c2cccc(Cl)c2Cl)c(N)n1
0.825

* * *

test system: OVCAR4; assay: Euclidean distance of Cell Painting phenotypic profile (signed KS, 77 features) to DMSO centroid (dimensionless distance); 5 or 10 uM (library dependent); higher = stronger phenotypic change vs DMSO (phenoactivity); conditions: 48 h
Each item that follows carries a reported Euclidean distance.
I only need the number, thanks.

Example entries begin here.
O=C(Nc1ccccc1)Nc1ccc(-c2ccc(C(=O)[C@@H]3CCC[C@H]3C(=O)O)cc2)cc1	0.814
Nc1nc2ccc(OC(F)(F)F)cc2s1	0.739

Annotate the compound O=C(O)C(Cc1ccccc1[N+](=O)[O-])=NNc1nc(-c2ccc(Cl)c(Cl)c2)cs1 (mixture of isomers) with its measured Euclidean distance.
0.642

* * *

tested on: 786-O; test: Euclidean distance of Cell Painting phenotypic profile (signed KS, 77 features) to DMSO centroid (dimensionless distance); 5 or 10 uM (library dependent); higher = stronger phenotypic change vs DMSO (phenoactivity); details: 48 h
RESULT TYPE: Euclidean distance
Quick one: just the number, no unit, thanks!

Examples with answers:
Cn1c(=O)n(-c2ccc(C(C)(C)C#N)cc2)c2c3cc(-c4cnc5ccccc5c4)ccc3ncc21 [BEZ235 (NVP-BEZ235. Dactolisib)]	3.77
C[C@H](CCC(=O)O)[C@H]1CC[C@H]2[C@@H]3[C@H](O)C[C@@H]4C[C@H](O)CC[C@]4(C)[C@H]3C[C@H](O)[C@]12C [Cholic acid]	1.14
Cc1ccc(S(=O)(=O)OCC(=O)Nc2ccc(C(=O)O)c(O)c2)cc1	1.33
Nc1nccc(Oc2ccc(NC(=O)c3c[nH]cc(-c4ccc(F)cc4)c3=O)cc2F)c1Cl	1.57
CC1(C)CCC(CN2CCN(c3ccc(C(=O)NS(=O)(=O)c4ccc(NCC5CCOCC5)c([N+](=O)[O-])c4)c(Oc4cnc5[nH]ccc5c4)c3)CC2)=C(c2ccc(Cl)cc2)C1	2.06
NCCCC[C@H](N[C@@H](CCc1ccccc1)C(=O)O)C(=O)N1CCC[C@H]1C(=O)O [Lisinopril dihydrate]	1.2

Lab note: record Euclidean distance of C[C@H]1[C@H](C)CC[C@]2(C(=O)O[C@@H]3O[C@H](CO[C@@H]4O[C@H](CO)[C@@H](O[C@@H]5O[C@@H](C)[C@H](O)[C@@H](O)[C@H]5O)[C@H](O)[C@H]4O)[C@@H](O)[C@H](O)[C@H]3O)CC[C@]3(C)C(=CC[C@@H]4[C@@]5(C)C[C@@H](O)[C@H](O)[C@@](C)(CO)[C@@H]5[C@H](O)C[C@]43C)[C@H]12 [Madecassoside] tested on 786-O.
0.76
